# assay.system: Human CD3εδ-Fc (human) (UniProt P04234)
# Sequence (chain, as listed by the source mutant, chain 1 of 2): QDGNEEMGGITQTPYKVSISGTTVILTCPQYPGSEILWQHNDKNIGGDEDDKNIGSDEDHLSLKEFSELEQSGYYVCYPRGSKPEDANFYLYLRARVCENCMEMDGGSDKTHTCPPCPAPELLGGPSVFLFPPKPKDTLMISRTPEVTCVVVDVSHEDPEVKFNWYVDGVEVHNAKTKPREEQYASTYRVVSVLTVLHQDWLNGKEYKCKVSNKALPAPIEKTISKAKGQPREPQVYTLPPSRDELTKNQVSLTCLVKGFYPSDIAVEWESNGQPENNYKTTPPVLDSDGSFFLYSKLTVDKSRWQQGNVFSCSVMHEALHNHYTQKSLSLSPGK
# Sequence (P04234 22-105, stated change not applied, chain 2 of 2): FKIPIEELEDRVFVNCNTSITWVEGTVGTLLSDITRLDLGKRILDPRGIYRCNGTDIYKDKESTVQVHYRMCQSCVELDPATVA
# protocol.description: KD of scFv-Fc or IgG on human CD3εδ-Fc; instrument not given
quantity.kind: Kd (nM)
# unit: nM | format: bare number

Examples from the recorded data:
binder | measurement.unit | Kd
ADI-46364 (antibody, V domains shown, also called Ab48) VH: QVQLVQSGAEVKKPGASVKVSCKASGFNIKDYYMHWVRQAPGQRLEWIGWIDLENANTVYDAKLQGRVTITRDTSASTAYMELSSLGSEDTAVYYCARDAYGRYFYDVWGQGTLVTVSS VL: DIVMTQSPDSLAVSLGERATINCKSSQSLLNARTGKNYLAWYQQKPGQPPKLLIYWASTRESGVPDRFSGSGSGTDFTLTISSLQAEDVAVYYCVQSYFRRTFGGGTKVEIK | nM | 0.97
ADI-46367 (antibody, V domains shown, also called Ab32) VH: QVQLVQSGAEVKKPGASVKVSCKASGFNIKDYYMHWVRQAPGQRLEWIGWIDLENANTVYDAKFQGRVTITRDTSASIAYMELSSLRSEDTAVYYCARDAYGRYFYDVWGQGTLVTVSS VL: DIVMTQSPDSLAVSLGERATINCKSSQSLLNARTGKNYLAWYQQKPGQPPKLLIYWASTRESGVPDRFSGSGSGTDFTLTISSLQAEDVAVYYCAQSYFRRTFGGGTKVEIK | nM | 0.95

[in] Consider the binder ADI-46356 (antibody, V domains shown) VH: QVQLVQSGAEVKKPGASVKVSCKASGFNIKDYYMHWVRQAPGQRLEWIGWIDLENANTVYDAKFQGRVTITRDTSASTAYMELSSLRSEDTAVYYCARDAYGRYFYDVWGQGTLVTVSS VL: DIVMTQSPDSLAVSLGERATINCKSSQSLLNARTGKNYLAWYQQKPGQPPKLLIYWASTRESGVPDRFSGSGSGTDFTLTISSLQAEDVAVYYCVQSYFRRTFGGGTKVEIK and give its measured Kd.
[out] 0.98

[in] Also ADI-45985 (antibody, V domains shown, also called Ab22) VH: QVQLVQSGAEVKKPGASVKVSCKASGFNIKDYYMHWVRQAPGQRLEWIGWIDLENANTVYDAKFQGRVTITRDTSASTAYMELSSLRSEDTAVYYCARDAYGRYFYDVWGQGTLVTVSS VL: DIVMTQSPDSLAVSLGERATINCKTSQSLLNARTNKNYLAWYQQKPGQPPKLLIYWASTRESGVPDRFSGSGSGTDFTLTISSLQAEDVAVYYCVQSYFRRTFGGGTKVEIK ?
[out] 0.08

[in] Okay, and ADI-46361 (antibody, V domains shown, also called Ab45) VH: QVQLVQSGAEVKKPGASVKVSCKASGFNNKDYYMHWVRQAPGQRLEWIGWIDLENANTVYDAKFQGRVTITRDTSASTAYMELSSLRSEDTAVYYCARDAYGRYFYDVWGQGTLVTVSS VL: DIVMTQSPDSLAVSLGERATINCKSSQSLLNARTGKNYLAWYQQKPGQPPKLLIYWASTRESGVPDRFSGSGSGTDFTLTISSLQAEDVAVYYCTQSYFRRTFGGGTKVEIK ?
[out] 0.93

This collection of values is drawn from patent US20260209352A1.
